# method.summary: Serum BW1433 level after chronic administration (fluorometric after HPLC separation)
# Assay type: in vivo, Zucker rats
# condition.summary: rat, serum, 0.2 mg/kg/h, Lean, +BW1433, 0.2 mg/kg (pump, per hour), day 7
metric.name: concentration at 168 h (ng/mL)
Reply numerically in ng/mL, unit not repeated.

Q: Quick check: concentration at 168 h of CCCn1c(=O)c2nc(-c3ccc(/C=C/C(=O)O)cc3)[nH]c2n(CCC)c1=O ?
Result: 102

---

# method.summary: Serum BW1433 level after chronic administration (fluorometric after HPLC separation)
# Type: in vivo, Zucker rats
# condition.summary: rat, serum, 0.4 mg/kg/h, Lean, +BW1433, 0.4 mg/kg (pump, per hour), day 7
metric.name: concentration at 168 h (ng/mL)
Give a bare numeral; the unit ng/mL is implied.

Q: I have this compound here, CCCn1c(=O)c2nc(-c3ccc(/C=C/C(=O)O)cc3)[nH]c2n(CCC)c1=O , and I need its recorded concentration at 168 h.
Result: 366

---

# method.summary: Serum BW1433 level after chronic administration (fluorometric after HPLC separation)
# Format: in vivo, Zucker rats
# condition.summary: rat, serum, 0.2 mg/kg/h, Fatty, +BW1433, 0.2 mg/kg (pump, per hour), day 7
metric.name: concentration at 168 h (ng/mL)
Numeric only. Scale: ng/mL

Q: What value of measured concentration at 168 h is listed for CCCn1c(=O)c2nc(-c3ccc(/C=C/C(=O)O)cc3)[nH]c2n(CCC)c1=O ?
Result: 205
